The measured values listed here are drawn from paper PMC12133982.

Would you kindly list IC50 for each of these molecules?
Target: HLA-B1501 (Homo sapiens, UniProt P01889, A329T/A93T/A95T/C349S/D201E/D98Y/E187L/E204Q/E69M/E70A/K202T/N87E/Q94N/R155S/R180W/S121R/S35A/S48A/V306I/V36M/Y140S/Y91S)
Experiment: Competitive peptide binding assay, CIR-B1501
Details: HMy2.CIR-B1501 cells, reference Cy5-[…], class from inhibition at 5 and 15 μM, flow cytometry MFI; read-out: Binding affinity with HLA-B1501
Peptide text beside a SMILES is read from it.

# molecule, IC50
records = [
    ("CC[C@H](C)[C@H](N)C(=O)N[C@@H](C)C(=O)N[C@@H](CCSC)C(=O)N[C@@H](C)C(=O)N[C@@H](CS)C(=O)N[C@@H](CC(C)C)C(=O)N[C@H](C(=O)NCC(=O)N[C@@H](CC(C)C)C(=O)O)C(C)C [Epitope Y253] (H-IAMACLVGL-OH; N-terminus and C-terminus assumed)", "> 15 µM"),
]

Please give the documented IC50 of CC(C)[C@H](NC(=O)CNC(=O)[C@H](Cc1c[nH]cn1)NC(=O)[C@@H]1CCCN1C(=O)[C@H](C)NC(=O)[C@H](CO)NC(=O)[C@H](CCC(N)=O)NC(=O)[C@@H]1CCCN1C(=O)[C@@H](N)Cc1ccccc1)C(=O)O [Epitope Y281] (H-FPQSAPHGV-OH; N-terminus and C-terminus assumed)
5 to 15 µM
